All figures here come from patent US20260258115A1.

study-system: RSV postfusion F (postF, F deltaFP) (Respiratory syncytial virus)
assay-comment: BLI, IgG on sensor, 100 nM antigen
Hi there, I'd appreciate the recorded Kd for every entry that follows.

ADI-41248 (antibody, V domains shown) VH: QVQLVQSGGGVVQPGRSLRLSCAASGFTFSSYSMHWVRQAPGKGLEWMAVCWYDGSNIYYADSVKGRFTISRDNSKNTVYLQMNSLRAEDTAVYYCARDDRYCSGGTCLSAFDIWGQGTMVTVSS VL: ETTLTQSPSSLSASVGDRVTITCRASQSISSYLNWYQQKPGRAPKLLIYTTSSLQSGVSSRFSGSGSGTDFTLTINSLQPEDFATYYCQQSYSTPNTFGQGTKVEIK    0.392 nM
ADI-41314 (antibody, V domains shown) VH: QVQLVQSGAEVKKPGSSVKVSCKAFGGIFSSYAISWVRQAPGQGLEWMGGIIPIFGTTKYAQKFQGRVTITADKSTSTVYMEVSSLRFEESAVYFCARAYCSGGTWYGGADYWGQGTLVTVSS VL: QSVLTQPPSVSVSPGQTARITCSGDVLPKQYAYWYQQKPGQAPLLVMYKDTERPSGIPERFSGSSSVTAVTLTISGVQAEDEADYYCQSADSTQELFGGGTKLTVL    0.414 nM
ADI-41304 (antibody, V domains shown) VH: EVQLVESGPGLVKPSQTLSLTCTVSGGSIRSHDYYWSWIRQPPGKGLEWIGYSYYSGSTYYNPSLKSRVIISLDTSKNQFSLNLTSVTAADTAMYYCARDRPHTSSWIPGWFDPWGQGTLVTVSS VL: SYELTQPPSASGTPGQRVTISCSGSSSNIGSNTVSWYQQFPGKAPKLLIYSNNERPSGGPDRFSGSKSGTSASLAIGGLQSEDEANYYCAAWDDSLYAVVFGGGTKLTVL    0.33 nM
ADI-41236 (antibody, V domains shown) VH: QVQLVQSGGGLVKPGGSLRLSCTASGFTFSDYYMDWIRQAPGKGLEWVSSISSSSTYTKYADSVKGRFTISRDNAKNSLFLQMNSLRAEDTAVYYCVRNLGPYCSSTSCFVFDYWGQGTLVTVSS VL: QSVLTQPPSVSGAPGQRVSISCTGSSSNIGAGYEVHWYKQVPGTAPRLLMYDNTNRPSGVPDRVSGSKSGTSASLAITGLQAEDEADYYCQSYDNSLNKSVFGGGTKVTVL    61.3 nM

Qu. Tell us which Kd value is on record for ADI-41299 (antibody, V domains shown) VH: EVQLVESGGGLVHPGRSLRLSCGASGFTFRSFAMHWVRQAPGKGLEWVAVISYDGSDEYYADSVKGRFTISRDNSRNTLFLQMNRLRPEDTAIYYCARAYCSTSNCPVLDYWGQGTLVTVSS VL: QSVLIQPASVSGSPGQSITISCTGTSSDVGGYSLVSWYQQHPGKAPKLIIFEGNKRPAGVSDRFSGSKYGDTASLTISGLQAEDEADYYCCSYAGGHSVFGGGTKVTVL
Ans. 2.25 nM
